Cited source for all entries: patent US20250243282A1

Quick list: % inhibition of CD62L shedding per entry.
tested_on: Recombinant human Gal3 (rhGal3) (TrueBinding, #QC200361) (human, UniProt P17931 2-250)
measurement_notes: cell-based or functional assay; further: test concentration or dose not given here

{"binder": "847.21B11 (antibody, V domains shown) VH: QVQLKQSGPGLVAPSQSLSITCTVSGFSLTSYGVHWVRQPPGKGLEWLGIIWAGGSTNYNPALMSRLSISKDKSKSQVFLKMNSLKTDDTAMYYCARDRASLLRPGAMDYWGQGTSVTVSS VL: DIVMTQSQKFMSTSVGDRVSVTCKASQNVGINVAWYQQKPGQSPKALIYSASYRYSGVPDRFTGSGSGTDFTLTISNVQSEDLAEYFCQQYNSYPYTFGGGTKLEMK", "% inhibition of CD62L shedding": "16.4%"}
{"binder": "849.2D7 (antibody, V domains shown) VH: QVQLQQSGPQLVRPGASVKISCKASGYSFTNYWMHWVKQRPGQGLEWIGMIDPSDSETRLNQKFKDKATLTVDKSSSTAYMQLSSPTSEDSAVYYCATGRPDYWGQGTTLTVSS VL: DIVMTQSHKFMSTSVGDRVSITCKASQDVSTAVAWYQQKPGQSPKLLIYWASTRHTGVPDRFTGSGSGTDYTLTISSVQAEDLALYYCQQHYSTPYTFGGGTKLEIK", "% inhibition of CD62L shedding": "78.1%"}
{"binder": "847.20H7 (antibody, V domains shown) VH: QVQLQQSGAELVRPGASVNLSCKASGYTFTNYWMNWVKQRPGQGLEWVGMIDPSDSETHYNQMFKDKATLTIDKSSSIAYMQLSSLTSEDSAVYYCARWGAMDYWGQGTSVTVSS VL: DIVMTQSHKIMSTSVGDRVSITCKASQDVSTTVAWFQQKPGQSPKLLLYWASTRHTGVPDRFTGSGSGTDYTLTISSVQAEDLALYYCQQHYSPPFTFGSGTKLEIK", "% inhibition of CD62L shedding": "63.4%"}
